# Test system: mRNA expression in cardiovascular tissues
# protocol-notes: Affymetrix GeneChip mRNA expression profiling of monkey tissues (iliac vein, pulmonary vein, aorta, carotid artery, heart) after two-week oral-gavage treatment
# assay-context: iliac vein; group average (Vioxx without A60055)
# CD53 (203416_at) mRNA expression, Avg fold changes vs control per record follows
observation-type: CD53 (203416_at) mRNA expression, Avg fold changes vs control

| smi | measured-value |
| --- | --- |
| CS(=O)(=O)c1ccc(C2=C(c3ccccc3)C(=O)OC2)cc1 | 1.2 fold |
| O=C(O)Cc1ccccc1Nc1c(Cl)cccc1Cl | 1.4 fold |
| Cc1ccc(Nc2c(F)cccc2Cl)c(CC(=O)O)c1 | 1.0 fold |
| Cc1ccc(-c2cc(C(F)(F)F)nn2-c2ccc(S(N)(=O)=O)cc2)cc1 | 2.3 fold |

###

# Test system: mRNA expression in cardiovascular tissues
# protocol-notes: Affymetrix GeneChip mRNA expression profiling of monkey tissues (iliac vein, pulmonary vein, aorta, carotid artery, heart) after two-week oral-gavage treatment
# assay-context: iliac vein; group average (Vioxx without A60055)
observation-type: HCLS1 (202957_at) mRNA expression, Avg fold changes vs control (fold)

| smi | measured-value |
| --- | --- |
| Cc1ccc(-c2cc(C(F)(F)F)nn2-c2ccc(S(N)(=O)=O)cc2)cc1 | 1.5 |
| O=C(O)Cc1ccccc1Nc1c(Cl)cccc1Cl | 1.1 |
| Cc1ccc(Nc2c(F)cccc2Cl)c(CC(=O)O)c1 | 1.0 |
| CS(=O)(=O)c1ccc(C2=C(c3ccccc3)C(=O)OC2)cc1 | 1.2 |

###

# Tested on: mRNA expression in cardiovascular tissues
# protocol-notes: Affymetrix GeneChip mRNA expression profiling of monkey tissues (iliac vein, pulmonary vein, aorta, carotid artery, heart) after two-week oral-gavage treatment
# assay-context: iliac vein; group average (Vioxx without A60055)
observation-type: FCGRT (218831_s_at) mRNA expression, Avg fold changes vs control (fold)

| smi | unit-label | measured-value |
| --- | --- | --- |
| CS(=O)(=O)c1ccc(C2=C(c3ccccc3)C(=O)OC2)cc1 | fold | 1.0 |
| Cc1ccc(-c2cc(C(F)(F)F)nn2-c2ccc(S(N)(=O)=O)cc2)cc1 | fold | 1.0 |
| Cc1ccc(Nc2c(F)cccc2Cl)c(CC(=O)O)c1 | fold | 1.0 |
| O=C(O)Cc1ccccc1Nc1c(Cl)cccc1Cl | fold | 0.9 |

###

# HLA-E (200904_at) mRNA expression, Avg fold changes vs control per record follows
# Test system: mRNA expression in cardiovascular tissues
# protocol-notes: Affymetrix GeneChip mRNA expression profiling of monkey tissues (iliac vein, pulmonary vein, aorta, carotid artery, heart) after two-week oral-gavage treatment
# assay-context: iliac vein; group average (Vioxx without A60055)
observation-type: HLA-E (200904_at) mRNA expression, Avg fold changes vs control (fold)

| smi | unit-label | measured-value |
| --- | --- | --- |
| Cc1ccc(Nc2c(F)cccc2Cl)c(CC(=O)O)c1 | fold | 1.0 |
| Cc1ccc(-c2cc(C(F)(F)F)nn2-c2ccc(S(N)(=O)=O)cc2)cc1 | fold | 1.2 |
| CS(=O)(=O)c1ccc(C2=C(c3ccccc3)C(=O)OC2)cc1 | fold | 1.1 |
| O=C(O)Cc1ccccc1Nc1c(Cl)cccc1Cl | fold | 1.2 |
